System: antibodies in sera from SARS patients (sera 1a, 1b, 2, 6, 37, 62, London, SARS-yellow, SARS-green)
Format: binding, human
readout kind: Binding of serum SARS-yellow to linear peptides of protein N of SARS-CoV Urbani

Task: Complete the entry with Binding of serum SARS-yellow to linear peptides of protein N of SARS-CoV Urbani for STDNNQNGGRNGARP
Output: 0.6

Task: Write down Binding of serum SARS-yellow to linear peptides of protein N of SARS-CoV Urbani measured for item LPNNTASWFTALTQH
Output: 0.5

Task: Check the records and state Binding of serum SARS-yellow to linear peptides of protein N of SARS-CoV Urbani for KDHIGTRNPNNNAAT
Output: 0.8

Task: Please give the documented Binding of serum SARS-yellow to linear peptides of protein N of SARS-CoV Urbani of DKKKKTDEAQPLPQR
Output: 0.6

Task: Input RQLQNSMSGASADST , output reported Binding of serum SARS-yellow to linear peptides of protein N of SARS-CoV Urbani.
Output: 0.5

---
Task: Item ITFGGPTDSTDNNQN : provide Binding of serum SARS-yellow to linear peptides of protein N of SARS-CoV Urbani
Output: 0.4

Task: Given YYRRATRRVRGGDGK , respond with its Binding of serum SARS-yellow to linear peptides of protein N of SARS-CoV Urbani.
Output: 0.5

Task: Find the measured Binding of serum SARS-yellow to linear peptides of protein N of SARS-CoV Urbani of PQRQKKQPTVTLLPA and report it.
Output: 0.6

Task: Identify measured Binding of serum SARS-yellow to linear peptides of protein N of SARS-CoV Urbani associated with PLPQRQKKQPTVTLL
Output: 1.0

Task: Look up and report measured Binding of serum SARS-yellow to linear peptides of protein N of SARS-CoV Urbani for this entry: RGQGVPINTNSGPDD
Output: 0.6

Task: Quick one: give measured Binding of serum SARS-yellow to linear peptides of protein N of SARS-CoV Urbani for HIGTRNPNNNAATVL
Output: 0.7

Task: Return the recorded Binding of serum SARS-yellow to linear peptides of protein N of SARS-CoV Urbani value; entry: PKKDKKKKTDEAQPL
Output: 0.5

Task: Supply measured Binding of serum SARS-yellow to linear peptides of protein N of SARS-CoV Urbani of GDGKMKELSPRWYFY in your reply.
Output: 0.6

Task: Provide Binding of serum SARS-yellow to linear peptides of protein N of SARS-CoV Urbani value for the following sequence: DSTDNNQNGGRNGAR
Output: 0.5

Just for reference, patent US20070128217A1 is where these values come from.
